# studySystem: Recombinant full length human OGA enzyme (Homo sapiens)
# Construct: Recombinant full length human OGA enzyme was purchased from Origene
# Sequence (O60502 whole entry): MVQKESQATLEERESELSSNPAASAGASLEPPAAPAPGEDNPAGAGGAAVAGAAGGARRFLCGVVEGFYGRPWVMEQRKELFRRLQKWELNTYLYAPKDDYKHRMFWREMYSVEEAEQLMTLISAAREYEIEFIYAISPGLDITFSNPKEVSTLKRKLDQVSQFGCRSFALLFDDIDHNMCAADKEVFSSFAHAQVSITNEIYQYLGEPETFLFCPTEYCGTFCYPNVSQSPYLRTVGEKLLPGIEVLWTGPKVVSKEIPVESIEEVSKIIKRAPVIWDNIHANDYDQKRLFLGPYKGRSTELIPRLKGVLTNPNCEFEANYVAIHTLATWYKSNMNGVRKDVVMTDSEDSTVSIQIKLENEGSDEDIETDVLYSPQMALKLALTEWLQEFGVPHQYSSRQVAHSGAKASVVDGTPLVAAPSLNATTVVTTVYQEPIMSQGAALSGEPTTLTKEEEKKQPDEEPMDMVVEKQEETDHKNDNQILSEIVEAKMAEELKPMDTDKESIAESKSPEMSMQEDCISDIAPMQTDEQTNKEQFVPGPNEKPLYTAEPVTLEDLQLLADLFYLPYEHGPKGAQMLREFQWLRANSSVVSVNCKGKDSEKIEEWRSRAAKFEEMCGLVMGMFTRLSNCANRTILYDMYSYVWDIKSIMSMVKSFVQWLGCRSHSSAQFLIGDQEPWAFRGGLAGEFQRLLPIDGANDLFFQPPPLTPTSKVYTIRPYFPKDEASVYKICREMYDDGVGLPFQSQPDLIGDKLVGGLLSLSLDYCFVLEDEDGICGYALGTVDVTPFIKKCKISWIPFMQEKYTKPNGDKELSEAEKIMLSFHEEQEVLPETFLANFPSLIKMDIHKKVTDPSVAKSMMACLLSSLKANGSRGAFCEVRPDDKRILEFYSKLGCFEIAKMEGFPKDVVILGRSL
# measurementProtocol: OGA Enzyme Inhibition Biochemical Assay
# testContext: 1 nM OGA, 100 μM 4-MUGlcNAc (Km), pH 6.4, 90 minutes at room temperature, 10-point dose-response from 20 μM
# Description: OGA Enzyme Inhibition Biochemical Assay Recombinant full length human OGA enzyme was purchased from Origene. 4-MUGlCNAc substrate was purchased from Sigma. All other reagents were purchased from Sigma or Fisher. […] Reactions were incubated for 90 minutes at room temperature and quenched with 40 μl of 3M glycine, pH 10 and read on a Perkin Elmer Envision plate reader (Ex: 355 nm/Em: 460 nm). […]
pIC50: recorded values
Interpret pIC50 as the negative base-10 log of the concentration measured in mol/L.

COc1ccc(CC2CCCN(Cc3cnc(NC(C)=O)s3)C2)cc1 (stereo not drawn)
8.10
COc1cc(C[C@@H]2C[C@@H](C)N(Cc3sc(NC(C)=O)nc3F)C2)ncn1
7.06

Query: Quick check: pIC50 of CC(=O)Nc1nc(F)c(CN2CCCC(Cc3noc(C)n3)C2)s1 (stereo not drawn) ?
Result: 8.18
